Parameter pIC50: see the listing below.
# targetDesc: CYP2D6 (Homo sapiens (Human))
# Sequence (P10635 whole entry): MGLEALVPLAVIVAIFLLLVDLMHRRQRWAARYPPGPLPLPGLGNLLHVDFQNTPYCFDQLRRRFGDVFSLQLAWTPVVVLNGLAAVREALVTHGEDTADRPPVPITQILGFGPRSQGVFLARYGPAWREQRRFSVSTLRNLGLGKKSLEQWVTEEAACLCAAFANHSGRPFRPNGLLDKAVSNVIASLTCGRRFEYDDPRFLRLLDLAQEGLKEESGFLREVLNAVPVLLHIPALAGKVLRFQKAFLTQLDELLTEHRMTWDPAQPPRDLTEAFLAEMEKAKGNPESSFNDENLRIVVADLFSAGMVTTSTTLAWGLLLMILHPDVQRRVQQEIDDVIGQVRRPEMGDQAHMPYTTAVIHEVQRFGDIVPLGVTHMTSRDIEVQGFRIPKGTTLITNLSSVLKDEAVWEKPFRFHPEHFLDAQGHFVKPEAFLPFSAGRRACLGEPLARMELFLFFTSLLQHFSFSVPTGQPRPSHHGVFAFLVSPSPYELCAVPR
# measurementDescription: CYP450 inhibition in human liver microsomes: CYP2D6
# details: read-out: CYP2D6 IC50 Dextromethorphan; probe substrate dextromethorphan
Worth noting: pIC50 values are minus log10 of concentrations stated in mol/L.

[[record]]
compound = "COCCOCCOCCOCCOCCOC(=O)NC(C(=O)NC(Cc1ccccc1)C(O)CN(Cc1ccc(-c2ccccn2)cc1)NC(=O)C(NC(=O)OC)C(C)(C)C)C(C)(C)C (stereo not shown) [mono-mPEG5-Atazanavir]"
quantityname = "pIC50"
experimentalresult = 4.65


# context switch: different compound, same pIC50
What is its pIC50 for CYP2D6 (Homo sapiens (Human))? Entry: COCCOC(=O)NC(C(=O)NC(Cc1ccccc1)C(O)CN(Cc1ccc(-c2ccccn2)cc1)NC(=O)C(NC(=O)OC)C(C)(C)C)C(C)(C)C (stereo not shown) [mono-mPEG1-Atazanavir] 4.74

====

# System: human monocytes
# measurementDescription: Toxicity in human monocytes in the absence of viral infection
Parameter TC50: see the listing below.
Answer in µM, number only, no unit symbol.

Observe how each entry below is paired with its result.
[[record]]
molecule = "COCCOCCOCCOCCOCCOCCOCCOC(=O)NC(C(=O)NC(Cc1ccccc1)C(O)CN(Cc1ccc(-c2ccccn2)cc1)NC(=O)C(NC(=O)OC)C(C)(C)C)C(C)(C)C (stereo not shown)"
experimentalresult = 132.2

[[record]]
molecule = "COCCOCCOCCOCCOCCOC(=O)NC(C(=O)NC(Cc1ccccc1)C(O)CN(Cc1ccc(-c2ccccn2)cc1)NC(=O)C(NC(=O)OC)C(C)(C)C)C(C)(C)C (stereo not shown)"
experimentalresult = 120.8

[[record]]
molecule = "COCCOCCOCCOCCOCCOCCOC(=O)NC(C(=O)NC(Cc1ccccc1)C(O)CN(Cc1ccc(-c2ccccn2)cc1)NC(=O)C(NC(=O)OC)C(C)(C)C)C(C)(C)C (stereo not shown)"
experimentalresult = 130.2


# context switch: different molecule, same TC50
What is its TC50 for human monocytes? Entry: COCCOC(=O)NC(C(=O)NC(Cc1ccccc1)C(O)CN(Cc1ccc(-c2ccccn2)cc1)NC(=O)C(NC(=O)OC)C(C)(C)C)C(C)(C)C (stereo not shown) 159.1

====

Parameter microsomal CLint: see the listing below.
# measurementDescription: in vitro
# Format: in vitro ADME
# details: monkey, microsomes
Answer in µL/min/mg, number only, no unit symbol.

[[record]]
molecule = "COCCOCCOCCOC(=O)NC(C(=O)NC(Cc1ccccc1)C(O)CN(Cc1ccc(-c2ccccn2)cc1)NC(=O)C(NC(=O)OC)C(C)(C)C)C(C)(C)C (centres unmarked)"
experimentalresult = 249


Entry COC(=O)N[C@H](C(=O)N[C@@H](Cc1ccccc1)[C@@H](O)CN(Cc1ccc(-c2ccccn2)cc1)NC(=O)[C@@H](NC(=O)OC)C(C)(C)C)C(C)(C)C [Atazanavir, reference compound] has what microsomal CLint? 42.9

====

# Test system: human liver microsomal proteins
# measurementDescription: Microsomal protein binding by equilibrium dialysis
# Assay type: in vitro ADME
# details: human liver microsomes, 3 μM, fraction unbound
Parameter Microsomal Protein Binding Fu ± SD: see the listing below.
Just the number.

Observe how each entry below is paired with its result.
[[record]]
compound = "CCCC1(CCc2ccccc2)CC(O)=C(C(CC)c2cccc(N(CCOCCOCCOC)S(=O)(=O)c3ccc(C(F)(F)F)cn3)c2)C(=O)O1 (centres unmarked) [mPEG3-amide-Tipranavir]"
experimentalresult = 0.73

[[record]]
compound = "COCCOCCOCCNc1ccc(S(=O)(=O)N(CC(C)C)CC(O)[C@H](Cc2ccccc2)NC(=O)O[C@H]2CO[C@H]3OCC[C@H]32)cc1 (some centres unmarked)"
experimentalresult = 0.96

[[record]]
compound = "CCC(C1=C(O)CC(CCCNC(=O)OC)(CCc2ccccc2)OC1=O)c1cccc(NS(=O)(=O)c2ccc(C(F)(F)F)cn2)c1 (mixture of isomers)"
experimentalresult = 0.887

[[record]]
compound = "COCCOCCOCCOCCOCCOc1ccc(C[C@H](NC(=O)O[C@H]2CO[C@H]3OCC[C@H]32)C(O)CN(CC(C)C)S(=O)(=O)c2ccc(N)cc2)cc1 (some centres unmarked)"
experimentalresult = 0.804

[[record]]
compound = "COCCOCCOCCOCCOCCOCCOCCOc1ccc(C[C@H](NC(=O)O[C@H]2CO[C@H]3OCC[C@H]32)C(O)CN(CC(C)C)S(=O)(=O)c2ccc(N)cc2)cc1 (some centres unmarked)"
experimentalresult = 0.84


Entry COCCOCCOCCOCCOCCNc1ccc(S(=O)(=O)N(CC(C)C)CC(O)[C@H](Cc2ccccc2)NC(=O)O[C@H]2CO[C@H]3OCC[C@H]32)cc1 (some centres unmarked) has what Microsomal Protein Binding Fu ± SD? 0.864

Entry CCC(C1=C(O)CC(CCCNC(=O)OCCOCCOCCOC)(CCc2ccccc2)OC1=O)c1cccc(NS(=O)(=O)c2ccc(C(F)(F)F)cn2)c1 (mixture of isomers) has what Microsomal Protein Binding Fu ± SD? 0.816

Entry COCCOCCOCCOc1ccc(C[C@H](NC(=O)O[C@H]2CO[C@H]3OCC[C@H]32)C(O)CN(CC(C)C)S(=O)(=O)c2ccc(N)cc2)cc1 (some centres unmarked) has what Microsomal Protein Binding Fu ± SD? 0.936

Entry CCC(C1=C(O)CC(CCCNC(=O)OCCOC)(CCc2ccccc2)OC1=O)c1cccc(NS(=O)(=O)c2ccc(C(F)(F)F)cn2)c1 (mixture of isomers) has what Microsomal Protein Binding Fu ± SD? 0.85
